B1: PKD2L1 (parent)
chain: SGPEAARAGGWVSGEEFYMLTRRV

Variants of: B1
Experiment: protein stability index of a GFP-peptide fusion (GPS, HEK-293T) (PSI 1-6); higher = more stable;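 also: lentivirally expressed fusions sorted by FACS into six bins by GFP to DsRed ratio, PSI derived from sequencing read proportions per bin multiplied by bin number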
Settings: c terminus: a fixed tail appended
Short version: protein stability index at least 3 is TRUE, less is FALSE.

Example entries and their recorded answers appear below.
{"columns": ["sequence", "category.label"],
 "data": [
  ["SGPFAARAGGWVSGEEFYMLTRRV [E4F]", "FALSE"],
  ["SGPEAARAGGWVSGEEFYMLTRTV [R23T]", "FALSE"],
  ["SGPEAARAGGWVSGEEVYMLTRRV [F17V]", "FALSE"],
  ["SGPEAARAGGWVSGEERYMLTRRV [F17R]", "TRUE"],
  ["SGPEAARAGGWVSGTEFYMLTRRV [E15T]", "FALSE"]
]}

Query: Exam item: decide whether the reported protein stability index for SGDEAARAGGWVSGEEFYMLTRRV [P3D] is at least 3.
Reply: FALSE

Query: Say whether SGPEAARAGGWVSGREFYMLTRRV [E15R] shows protein stability index of 3 or more.
Reply: FALSE

Query: I'd appreciate it if you could say whether SGPEVARAGGWVSGEEFYMLTRRV [A5V] has protein stability index at least equal to 3.
Reply: TRUE

Query: Determine whether measured protein stability index meets or exceeds 3 for SGREAARAGGWVSGEEFYMLTRRV [P3R]
Reply: FALSE

Query: Evaluate SGPEAARAGRWVSGEEFYMLTRRV [G10R] : protein stability index at minimum 3?
Reply: FALSE

Query: Assess whether reported protein stability index for SGPEAARAGGWVSGEEFYMLHRRV [T21H] sits at 3 or higher.
Reply: FALSE

Query: Does protein stability index meet or surpass 3 for SGPIAARAGGWVSGEEFYMLTRRV [E4I] ?
Reply: FALSE

Query: Does the reported protein stability index for SGPEAARAGGWVSGEEFYMLTRRI [V24I] fall at or above the 3 mark?
Reply: FALSE

Query: Confirm if protein stability index reported for the variant SGPNAARAGGWVSGEEFYMLTRRV [E4N] is 3 or above.
Reply: FALSE

Query: # check: protein stability index of SGPEAARAGGWVLGEEFYMLTRRV [S13L] is greater than or equal to 3
Reply: FALSE

Query: Can SGPEAARFGGWVSGEEFYMLTRRV [A8F] be said to have protein stability index at or above 3?
Reply: FALSE

Query: In plain terms: is recorded protein stability index at least 3 for SGPEAARAGGWVSGEEFYMPTRRV [L20P] ?
Reply: TRUE

Query: Decide: is the reported value of protein stability index for SGPEAARAGGWVSGEEFYKLTRRV [M19K] equal to or greater than 3?
Reply: TRUE

Query: Given SGPEAARAGGWVSGEEFYMLTHRV [R22H] , state whether its protein stability index is at least 3.
Reply: FALSE

Query: Is protein stability index at least 3? Consider SGPEAARAGGWVSGYEFYMLTRRV [E15Y]
Reply: FALSE

Query: Kindly determine if protein stability index recorded for SGPEAARAGGNVSGEEFYMLTRRV [W11N] is above or exactly 3.
Reply: TRUE

Query: Could you please find out whether SGPEAARASGWVSGEEFYMLTRRV [G9S] has protein stability index that meets 3 or exceeds it?
Reply: FALSE

Query: Reported protein stability index reaches at least 3 for SGPEAARAGYWVSGEEFYMLTRRV [G10Y] ?
Reply: FALSE

Query: Check this variant for protein stability index at or above 3: SGPEAARAGGWVSGEEFYMLTPRV [R22P]
Reply: FALSE

Query: Is protein stability index for SGPEAARAGGWVSGEEFYMYTRRV [L20Y] at or above 3?
Reply: FALSE

Query: Given the entry SGPEAARAGGWVSGEEFYMRTRRV [L20R] , answer whether its protein stability index meets or surpasses 3.
Reply: TRUE

Query: Could you please find out whether SGPEAARAGGWISGEEFYMLTRRV [V12I] has protein stability index that meets 3 or exceeds it?
Reply: FALSE

Query: protein stability index >= 3 for SGPEAARLGGWVSGEEFYMLTRRV [A8L] ?
Reply: FALSE

Query: Answer whether protein stability index of SGPEAARAGGWVSGEEFYNLTRRV [M19N] is greater than or equal to 3.
Reply: TRUE

Query: Check if protein stability index >= 3 (inclusive). Item: SGPEIARAGGWVSGEEFYMLTRRV [A5I]
Reply: FALSE

Query: Does SGPEAARAGGCVSGEEFYMLTRRV [W11C] have a reported protein stability index of at least 3?
Reply: FALSE

Query: Identify whether the reported protein stability index of the following variant is 3 or greater: SGPEAARAGGWVSGEEFYMNTRRV [L20N]
Reply: TRUE

Query: Reported protein stability index at or above 3? SGPEAAFAGGWVSGEEFYMLTRRV [R7F]
Reply: FALSE

Query: Is it the case that SGPEAARAGGWVTGEEFYMLTRRV [S13T] has protein stability index reaching or exceeding 3?
Reply: FALSE

Query: Hi, just wondering whether SGPEAARDGGWVSGEEFYMLTRRV [A8D] shows protein stability index of 3 or higher.
Reply: FALSE

Query: API: above_or_equal(metric=protein stability index, cutoff=3) for item SGPEAARAGGWVEGEEFYMLTRRV [S13E]
Reply: TRUE
